- Tested on: A375 Human Melanoma Xenografts
- test_parameters: A375; i.v. qd x 1 (mg/kg: Taxol 24, 1351 107.6, 1393 72.6, 1401 107.6, 1418 107.6, 1424 195.1, Taxotere 70); Day 60
readout_label: Toxic Deaths
Keep the answer to the number alone.

## Input Quick one: Toxic Deaths for CC(=O)O[C@@]12CO[C@@H]1C[C@H](O)[C@@]1(C)C(=O)[C@H](O)C3=C(C)[C@@H](OC(=O)[C@H](O)[C@@H](NC(=O)OC(C)(C)C)c4ccccc4)C[C@@](O)([C@@H](OC(=O)c4ccccc4)[C@H]21)C3(C)C [docetaxel, reference compound] ?
## Output 0

## Input Subsequent entry: `CCC(=O)O[C@H]1C[C@H]2OC[C@@]2(OC(C)=O)[C@H]2[C@H](OC(=O)c3ccccc3)[C@]3(O)C[C@H](OC(=O)[C@H](O)[C@@H](NC(=O)OC(C)(C)C)c4ccoc4)C(C)=C([C@@H](O)C(=O)[C@]12C)C3(C)C`
## Output 0

## Input Now consider `CCC(=O)O[C@H]1C[C@H]2OC[C@@]2(OC(C)=O)[C@H]2[C@H](OC(=O)c3ccccc3)[C@]3(O)C[C@H](OC(=O)[C@H](O)[C@@H](NC(=O)OC(C)(C)C)c4ccco4)C(C)=C([C@@H](O)C(=O)[C@]12C)C3(C)C` .
## Output 0

## Input Input CC(=O)O[C@H]1C(=O)[C@@]2(C)[C@H]([C@H](OC(=O)c3ccccc3)[C@]3(O)C[C@H](OC(=O)[C@H](O)[C@@H](NC(=O)c4ccccc4)c4ccccc4)C(C)=C1C3(C)C)[C@]1(OC(C)=O)CO[C@@H]1C[C@@H]2O [Taxol, paclitaxel, reference compound]
## Output 2

Cited source: patent EP1285918A1
